Test system: T. cruzi epimastigotes, Tulahuen 2 strain (genotype TcVI)
Test: In vitro anti-T. cruzi activity, growth inhibition of epimastigotes
Format: cell-based, Trypanosoma cruzi
Details: ratio IC50 mammalian cell / IC50 parasite (epimastigotes)

>  <MOLECULE>
C(=Cc1ccccc1)CN1CCN(/N=C/C=C/c2ccco2)CC1 [GAT0913b]

>  <SI J774.1/ T. cruzi>
1

$$$$
>  <MOLECULE>
O=C1/C(=C/c2cccc3cnccc23)CC/C1=C\c1cccc2cnccc12 [Comp13, reference compound]

>  <SI J774.1/ T. cruzi>
1

$$$$
>  <MOLECULE>
CCCCCCCCCCCCCCCCOP(=O)([O-])OCC[N+](C)(C)C [Miltefosine, reference compound]

>  <SI J774.1/ T. cruzi>
6

$$$$
>  <MOLECULE>
COc1cc(/C=C/C(=O)CC(=O)/C=C/c2ccc(O)c(OC)c2)ccc1O [Curcumin, reference compound]

>  <SI J774.1/ T. cruzi>
2

$$$$
>  <MOLECULE>
C=CCn1c(-c2ccc(Cl)cc2)cs\c1=N/N=C/C=C/c1ccc(C)o1 [GAT0113A]

>  <SI J774.1/ T. cruzi>
22

$$$$
>  <MOLECULE>
C=CCn1c(-c2ccc(Cl)cc2)cs\c1=N/N=C/C(C)=C/c1ccco1 [GAT0513]

>  <SI J774.1/ T. cruzi>
611

$$$$
>  <MOLECULE>
Cc1ccc(/C=C/C=C/C(/C=C/C=C/c2ccc(C)o2)=NN2CCN(CC=Cc3ccccc3)CC2)o1 [GAT1113]

>  <SI J774.1/ T. cruzi>
28

$$$$
>  <MOLECULE>
O=C(Cn1ccnc1[N+](=O)[O-])NCc1ccccc1 [Benznidazole, reference compound]

>  <SI J774.1/ T. cruzi>
57

$$$$
>  <MOLECULE>
C=CCn1c(C(=O)N2CCN(C/C=C/c3ccccc3)CC2)cs\c1=N/N=C/C=C/c1ccco1 [HIT1]

>  <SI J774.1/ T. cruzi>
10

$$$$

* * *

System: T. cruzi epimastigotes, Tulahuen 2 strain (genotype TcVI)
Assay: In vitro anti-T. cruzi activity, growth inhibition of epimastigotes
Format: cell-based, Trypanosoma cruzi
Conditions: Trypanosoma cruzi, TULAHUEN, Figure 4, molecular stripping of HIT1; read-out: Effect of structural change on trypanocidal activity (emoticon code)
Method: For the in vitro anti-T. cruzi activity, we used epimastigotes of the Tulahuen 2 strain (genotype TcVI) grown in an axenic milieu (BHI-Tryptose). […] The absorbance at 600 nm of the cells in culture was measured every day. At Day 5, the milieu was inoculated with different quantities of the compounds from a stock solution in DMSO (DMSO concentration in the culture milieu never exceeded 0.4%). […] Each concentration of compound was evaluated in duplicate. […]
// reported IC50 per item
MEASURED_METRIC: IC50

>  <MOLECULE>
C=CCn1c(C(=O)CNCc2ccccc2)cs/c1=N/N=C\C=C\c1ccco1

>  <TARGET_OR_SYSTEM>
T. cruzi epimastigotes, Tulahuen 2 strain (genotype TcVI)

>  <RESULT>
> 25 µM

$$$$
>  <MOLECULE>
O=C(C=Cc1ccco1)N1CCN(CC=Cc2ccccc2)CC1

>  <TARGET_OR_SYSTEM>
T. cruzi epimastigotes, Tulahuen 2 strain (genotype TcVI)

>  <RESULT>
> 25 µM

$$$$
>  <MOLECULE>
C=CCn1c(C(=O)CN2CCN(Cc3ccccc3)CC2)cs/c1=N/N=C\C=C\c1ccco1

>  <TARGET_OR_SYSTEM>
T. cruzi epimastigotes, Tulahuen 2 strain (genotype TcVI)

>  <RESULT>
> 25 µM

$$$$
>  <MOLECULE>
C(=Cc1ccccc1)CN1CCN(/N=C/C=C/c2ccco2)CC1 [GAT0913b]

>  <TARGET_OR_SYSTEM>
T. cruzi epimastigotes, Tulahuen 2 strain (genotype TcVI)

>  <RESULT>
> 25 µM

$$$$
>  <MOLECULE>
C=CCn1c(C(=O)CN2CCN(CC=Cc3ccccc3)CC2)cs/c1=N/N=C\C=C\c1ccco1

>  <TARGET_OR_SYSTEM>
T. cruzi epimastigotes, Tulahuen 2 strain (genotype TcVI)

>  <RESULT>
< 5 µM

$$$$
>  <MOLECULE>
Cc1ccc(/C=C/C=N/N2CCN(CC=Cc3ccccc3)CC2)o1

>  <TARGET_OR_SYSTEM>
T. cruzi epimastigotes, Tulahuen 2 strain (genotype TcVI)

>  <RESULT>
5 to 25 µM

$$$$
>  <MOLECULE>
Cc1ccc(/C=C/C=C/C(/C=C/C=C/c2ccc(C)o2)=NN2CCN(CC=Cc3ccccc3)CC2)o1

>  <TARGET_OR_SYSTEM>
T. cruzi epimastigotes, Tulahuen 2 strain (genotype TcVI)

>  <RESULT>
< 5 µM

$$$$
>  <MOLECULE>
C=CCn1c(C(=O)CN2CCN(c3ccccc3)CC2)csc1=NN=CC=Cc1ccco1

>  <TARGET_OR_SYSTEM>
T. cruzi epimastigotes, Tulahuen 2 strain (genotype TcVI)

>  <RESULT>
> 25 µM

$$$$
>  <MOLECULE>
C(=C\c1ccco1)/C=N/N1CCN(Cc2ccccc2)CC1

>  <TARGET_OR_SYSTEM>
T. cruzi epimastigotes, Tulahuen 2 strain (genotype TcVI)

>  <RESULT>
> 25 µM

$$$$

Each recorded value in this set is attributed to paper PMC6154605.
